- target: Myc proto-oncogene protein (Homo sapiens) (UniProt P01106)
- Sequence (P01106 whole entry, looked up): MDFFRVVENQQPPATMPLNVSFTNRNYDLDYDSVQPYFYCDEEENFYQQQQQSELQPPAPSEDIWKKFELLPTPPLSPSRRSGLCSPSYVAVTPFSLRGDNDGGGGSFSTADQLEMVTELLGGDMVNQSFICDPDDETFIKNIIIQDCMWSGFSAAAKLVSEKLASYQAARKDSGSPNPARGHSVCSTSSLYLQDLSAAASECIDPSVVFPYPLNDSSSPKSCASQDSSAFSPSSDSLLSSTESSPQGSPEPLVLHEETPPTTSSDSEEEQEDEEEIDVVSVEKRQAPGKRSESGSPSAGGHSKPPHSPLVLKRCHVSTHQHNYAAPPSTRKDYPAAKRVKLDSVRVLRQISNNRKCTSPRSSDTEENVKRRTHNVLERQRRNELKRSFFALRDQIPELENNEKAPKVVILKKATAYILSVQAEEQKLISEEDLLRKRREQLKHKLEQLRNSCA
- experimentalDetails: ATG_Myc_CIS: Attagene CIS-FACTORIAL HepG2 Assay for human Myelocytomatosis (Myc) Proto-Oncogene Transcription Factor (AID 2282990)
- appliedConditions: HepG2, Attagene cis-reporter transcription factor activity; actives raise or lower the signal
Calls of active or inactive are those of the source. How the source made its calls: active means hit-call score of the fitted dose curve at least 0.9, where 1 is the maximum; inactive means score below 0.9.
assayReadout: outcome

Completed entries (count: 5):
COC(=O)CC(C(C)=O)C(=O)OC (stereo unspecified) = inactive
O=C1c2ccccc2C(=O)c2c(O)c(O)cc(O)c21 = inactive
COc1cc([N+](=O)[O-])ccc1N = inactive
Clc1ccc2c(Cl)ccnc2c1 = inactive
CCCCCCCCCCCCCCCCCC[N+](C)(C)Cc1ccccc1 = inactive

*Q* Determine its reported outcome: FC(F)(F)C(F)(F)C(F)(F)C(F)(F)I
*A* inactive

*Q* Determine its reported outcome: CCC1CO1 (stereo unspecified)
*A* inactive

*Q* Determine its reported outcome: Cc1ccc(C)c(S(=O)(=O)O)c1
*A* inactive

*Q* Determine its reported outcome: O=C(O)CCC(F)(F)C(F)(F)C(F)(F)C(F)(F)C(F)(F)F
*A* inactive

*Q* Determine its reported outcome: FCOC(C(F)(F)F)C(F)(F)F
*A* inactive

*Q* Determine its reported outcome: NCCN
*A* inactive

----------
- target: Peroxisome proliferator-activated receptor gamma (Homo sapiens) (UniProt P37231)
- Sequence (P37231 whole entry, looked up): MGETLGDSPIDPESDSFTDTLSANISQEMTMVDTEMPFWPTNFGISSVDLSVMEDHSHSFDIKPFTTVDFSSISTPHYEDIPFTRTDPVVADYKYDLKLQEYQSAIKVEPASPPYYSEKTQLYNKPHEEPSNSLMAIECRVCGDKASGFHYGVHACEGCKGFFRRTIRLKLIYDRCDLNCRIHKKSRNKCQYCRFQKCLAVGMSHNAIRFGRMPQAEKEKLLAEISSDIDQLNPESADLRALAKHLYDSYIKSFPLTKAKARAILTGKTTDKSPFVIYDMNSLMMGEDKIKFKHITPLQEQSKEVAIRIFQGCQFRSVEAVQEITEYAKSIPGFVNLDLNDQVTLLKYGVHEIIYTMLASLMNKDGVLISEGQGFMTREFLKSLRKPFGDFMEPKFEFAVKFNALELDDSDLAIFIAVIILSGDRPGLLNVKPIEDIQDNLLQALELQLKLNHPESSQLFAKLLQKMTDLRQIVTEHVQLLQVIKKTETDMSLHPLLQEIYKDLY
- experimentalDetails: OT_PPARg_PPARgSRC1_0480: Odyssey Thera (OT) 8-hour Protein-Complementation Assay for Peroxisome Proliferator-activated Receptor Gamma / SRC-1 Co-activator (AID 2283387);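 further: nuclear to cytoplasmic split Venus YFP fluorescence ratio reporting PPARg SRC-1 interaction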
Records with an inconclusive call do not appear. Activity calls are given as the source filed them. Rule for the calls: active = hit-call score of the fitted dose curve at least 0.9, where 1 is the maximum; inconclusive = response in the unintended direction; inactive = score below 0.9.
assayReadout: outcome

CC(=O)Nc1ccc(O)cc1 = inactive
O=C(CCCN1CCC(O)(c2ccc(Cl)cc2)CC1)c1ccc(F)cc1 = inactive
CC(C)c1c(C(=O)Nc2ccccc2)c(-c2ccccc2)c(-c2ccc(F)cc2)n1CC[C@@H](O)C[C@@H](O)CC(=O)O = inactive

----------
- experimentalDetails: BSK_4H_SRB: Viability Assessment in the BioMAP Diversity Plus: 4H Assay (AID 2283027);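 further: cells exposed to compound for 24 h before staining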
- appliedConditions: primary human endothelial cells (HUVEC)
Calls of active or inactive are those of the source. Rule for the calls: active = hit-call score of the fitted dose curve at least 0.9, where 1 is the maximum; inactive = score below 0.9.
assayReadout: AC50

O=C1c2ccc(O)c(O)c2C(=O)c2c(O)ccc(O)c21 = inactive
C=CC(=C)CC/C=C(\C)CCC=C(C)C = inactive
CCCCC(CC)C(=O)OCCOCCOCCOCCOC(=O)C(CC)CCCC (centres undefined) = inactive
O=C(O)CCC(F)(F)C(F)(F)C(F)(F)C(F)(F)C(F)(F)F = inactive
C=CC(=O)OCCC(F)(F)C(F)(F)C(F)(F)C(F)(F)C(F)(F)C(F)(F)C(F)(F)C(F)(F)F = inactive

Okay, next one:
*Q* Determine its reported AC50: Clc1ccc(Nc2nnc(Cc3ccncc3)c3ccccc23)cc1
*A* inactive

----------
- target: Hypoxia-inducible factor 1-alpha (Homo sapiens) (UniProt Q16665)
- Sequence (Q16665 whole entry, looked up): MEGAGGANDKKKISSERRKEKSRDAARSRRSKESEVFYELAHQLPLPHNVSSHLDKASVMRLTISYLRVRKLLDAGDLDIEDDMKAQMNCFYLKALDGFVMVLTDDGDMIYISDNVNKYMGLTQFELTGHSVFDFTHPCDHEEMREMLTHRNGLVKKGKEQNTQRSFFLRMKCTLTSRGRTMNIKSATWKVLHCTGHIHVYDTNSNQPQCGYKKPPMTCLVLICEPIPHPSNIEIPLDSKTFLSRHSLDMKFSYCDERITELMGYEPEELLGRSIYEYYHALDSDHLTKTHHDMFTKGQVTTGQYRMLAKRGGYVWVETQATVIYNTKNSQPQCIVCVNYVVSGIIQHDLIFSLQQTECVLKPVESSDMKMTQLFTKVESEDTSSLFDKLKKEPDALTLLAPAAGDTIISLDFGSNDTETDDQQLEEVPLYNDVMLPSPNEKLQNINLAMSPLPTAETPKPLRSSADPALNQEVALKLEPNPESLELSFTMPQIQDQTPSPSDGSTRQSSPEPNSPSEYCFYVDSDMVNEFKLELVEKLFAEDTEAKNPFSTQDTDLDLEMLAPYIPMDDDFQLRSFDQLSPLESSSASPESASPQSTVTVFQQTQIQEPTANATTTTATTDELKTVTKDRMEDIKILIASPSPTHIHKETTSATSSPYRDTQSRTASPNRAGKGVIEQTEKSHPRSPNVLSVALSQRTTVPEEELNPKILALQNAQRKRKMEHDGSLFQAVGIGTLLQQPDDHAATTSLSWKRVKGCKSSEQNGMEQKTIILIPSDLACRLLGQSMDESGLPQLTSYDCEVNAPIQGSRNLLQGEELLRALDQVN
- experimentalDetails: ATG_HIF1a_CIS: Attagene CIS-FACTORIAL HepG2 Assay for human Hypoxia Inducible Factor 1 (HIF1A) (AID 2282951)
- appliedConditions: HepG2 Attagene cis-factorial HIF1a reporter transcription; actives raise or lower the signal
The source made the active and inactive calls. Rule for the calls: active = hit-call score of the fitted dose curve at least 0.9, where 1 is the maximum; inactive = score below 0.9.
assayReadout: outcome

O=C1OC(=O)C(F)(F)C1(F)F = inactive
CCC(C)c1ccccc1O (centres undefined) = inactive
FC(F)(F)C1(F)C(F)(F)C(F)(F)C(F)(F)C1(F)F = inactive
O=C(O)C(=O)O = inactive
